- tgt: Liver carboxylesterase (Sus scrofa)
- Sequence (Q29550 whole entry): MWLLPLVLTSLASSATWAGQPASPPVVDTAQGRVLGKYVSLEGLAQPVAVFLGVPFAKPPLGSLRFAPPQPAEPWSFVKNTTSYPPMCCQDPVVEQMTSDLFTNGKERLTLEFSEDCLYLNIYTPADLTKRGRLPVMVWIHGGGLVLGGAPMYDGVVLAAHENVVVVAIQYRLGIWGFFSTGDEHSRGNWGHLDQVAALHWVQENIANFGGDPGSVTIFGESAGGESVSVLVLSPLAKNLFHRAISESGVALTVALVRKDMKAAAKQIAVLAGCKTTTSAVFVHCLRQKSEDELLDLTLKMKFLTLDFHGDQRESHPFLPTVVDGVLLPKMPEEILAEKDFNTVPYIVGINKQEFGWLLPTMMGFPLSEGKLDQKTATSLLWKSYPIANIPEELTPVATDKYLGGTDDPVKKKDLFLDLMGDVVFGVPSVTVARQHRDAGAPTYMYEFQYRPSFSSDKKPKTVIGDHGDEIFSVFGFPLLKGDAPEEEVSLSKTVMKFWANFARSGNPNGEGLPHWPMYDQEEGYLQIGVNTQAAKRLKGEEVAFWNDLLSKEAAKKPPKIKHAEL
- assayComment: Inhibition of pig liver carboxylesterase after 5 mins
Below, each of the molecules is paired with its reported log10 IC50 value.
measure: log10 IC50 (log10 of the value in nM)

molecule="CCCCCCCCCCCC[S+]([O-])CC(=O)C(F)(F)F (centres undefined)" testresult=1.08
molecule="CCCCCCCCCC[S+]([O-])CC(=O)C(F)(F)F (centres undefined)" testresult=0.74
molecule="O=C(C(=O)c1ccccc1)c1ccccc1 [BENZIL]" testresult=2.57
molecule="CCCCCC[S+]([O-])CC(=O)C(F)(F)F (centres undefined)" testresult=2.45
molecule=CCCCCCCCCCS(=O)(=O)CC(=O)C(F)(F)F testresult=1.80
molecule=CCCCCCCCS(=O)(=O)CC(=O)C(F)(F)F testresult=2.92
molecule=CCCCCCCCCCCCS(=O)(=O)CC(=O)C(F)(F)F testresult=1.57
molecule=CCCCCCS(=O)(=O)CC(=O)C(F)(F)F testresult=2.67
molecule=CCCCCCSCC(=O)C(F)(F)F testresult=0.88

Numbers sourced from ChEMBL document CHEMBL1141638.
